Biological target: recombinant human PAD2 (human, UniProt Q9Y2J8 1-665)
Sequence (Q9Y2J8 whole entry): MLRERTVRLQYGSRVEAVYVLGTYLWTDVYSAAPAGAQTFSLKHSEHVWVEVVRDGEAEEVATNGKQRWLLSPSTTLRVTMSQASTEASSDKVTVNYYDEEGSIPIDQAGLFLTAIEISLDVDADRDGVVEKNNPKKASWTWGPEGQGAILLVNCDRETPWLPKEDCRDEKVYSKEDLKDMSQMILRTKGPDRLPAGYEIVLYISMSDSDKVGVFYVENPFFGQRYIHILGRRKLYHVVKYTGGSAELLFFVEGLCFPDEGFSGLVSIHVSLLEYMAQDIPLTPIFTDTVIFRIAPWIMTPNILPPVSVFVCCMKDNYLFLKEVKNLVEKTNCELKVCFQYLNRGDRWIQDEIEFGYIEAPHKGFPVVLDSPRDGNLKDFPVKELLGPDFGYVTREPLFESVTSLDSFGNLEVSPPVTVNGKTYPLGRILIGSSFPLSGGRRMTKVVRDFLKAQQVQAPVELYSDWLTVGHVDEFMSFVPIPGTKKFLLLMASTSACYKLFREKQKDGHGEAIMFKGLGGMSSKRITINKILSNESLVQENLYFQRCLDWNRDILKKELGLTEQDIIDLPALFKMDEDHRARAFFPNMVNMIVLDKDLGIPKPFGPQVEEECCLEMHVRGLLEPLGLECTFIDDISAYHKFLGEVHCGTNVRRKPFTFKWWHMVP
Test: cell-based or functional assay
Numbered stars: 1 amine (or outer) side, 2 acyl side, 3 side chain; on linkers, the order of the positions; unused ones are H or OH. Square brackets hold non-standard residues; d marks the D form. Orn(CA) = ornithine chloroamidine, O(CA), N=C(CCl)NCCC[C@H](N[*:1])C(=O)[*:2]
PARAMETER: conversion of 0708-30 by PAD2, 100 µM inhibitor (%)
Lab book: enter the figure in %, no units written.

Notebook: Ac-DSKKHD[Orn(CA)]DFLYSD-NH2 (SMILES CC(=O)N[C@@H](CC(=O)O)C(=O)N[C@@H](CO)C(=O)N[C@@H](CCCCN)C(=O)N[C@@H](CCCCN)C(=O)N[C@@H](Cc1c[nH]cn1)C(=O)N[C@@H](CC(=O)O)C(=O)N[C@@H](CCCNC(=N)CCl)C(=O)N[C@@H](CC(=O)O)C(=O)N[C@@H](Cc1ccccc1)C(=O)N[C@@H](CC(C)C)C(=O)N[C@@H](Cc1ccc(O)cc1)C(=O)N[C@@H](CO)C(=O)N[C@@H](CC(=O)O)C(N)=O) [0741-06CA] , conversion of 0708-30 by PAD2, 100 µM inhibitor read as 48

Notebook: Ac-FFDSHKLH[Orn(CA)]EWMWSD-NH2 (SMILES CSCC[C@H](NC(=O)[C@H](Cc1c[nH]c2ccccc12)NC(=O)[C@H](CCC(=O)O)NC(=O)[C@H](CCCNC(=N)CCl)NC(=O)[C@H](Cc1c[nH]cn1)NC(=O)[C@H](CC(C)C)NC(=O)[C@H](CCCCN)NC(=O)[C@H](Cc1c[nH]cn1)NC(=O)[C@H](CO)NC(=O)[C@H](CC(=O)O)NC(=O)[C@H](Cc1ccccc1)NC(=O)[C@H](Cc1ccccc1)NC(C)=O)C(=O)N[C@@H](Cc1c[nH]c2ccccc12)C(=O)N[C@@H](CO)C(=O)N[C@@H](CC(=O)O)C(N)=O) [0741-04CA] , conversion of 0708-30 by PAD2, 100 µM inhibitor read as 50
